- MEASUREMENT_NOTES: Selectivity index, ratio of CC50 for human HepG2.2.15 cells to EC50 for Hepatitis B virus
- Type: toxicity
- COND: read-out: Selectivity Index
OBSERVATION_TYPE: selectivity ratio

Which measured selectivity ratio value corresponds to Nc1ncnc2c1ncn2C1=C[C@H](CO)[C@@H](O)[C@H]1O ?
> 14

---

- MEASUREMENT_NOTES: Selectivity index, ratio of CC50 for human HFF cells to EC50 for Vaccinia virus
- Format: toxicity, cell-based
- COND: read-out: Selectivity Index
OBSERVATION_TYPE: selectivity ratio

I am curious: what selectivity ratio value has been reported for Nc1ncnc2c1ncn2C1=C[C@H](CO)[C@@H](O)[C@H]1O ?
> 30

---

- MEASUREMENT_NOTES: Selectivity index, ratio of CC50 for african green monkey Vero cells to EC50 for Ebola virus Zaire virus
- Format: toxicity, cell-based
- COND: read-out: Selectivity Index
OBSERVATION_TYPE: selectivity ratio

Value lookup for selectivity ratio; key = Nc1ncnc2c1ncn2C1=C[C@H](CO)[C@@H](O)[C@H]1O
3.5

---

- MEASUREMENT_NOTES: Selectivity index, ratio of CC50 for african green monkey Vero cells to EC50 for Dengue virus
- Assay type: toxicity, cell-based
- COND: read-out: Selectivity Index
OBSERVATION_TYPE: selectivity ratio
# respond with the number and nothing more

What selectivity ratio value was documented for this compound, Nc1ncnc2c1ncn2C1=C[C@H](CO)[C@@H](O)[C@H]1O ?
17

---

- Test system: Measles morbillivirus
- MEASUREMENT_NOTES: Antiviral activity against Measles virus infected in african green monkey Vero cells assessed as inhibition of viral-induced cytopathicity
- Assay type: functional, organism-based
OBSERVATION_TYPE: EC50 (nM)
// note: answer is a bare numeric in nM

Would you kindly share the measured EC50 for Nc1ncnc2c1ncn2C1=C[C@@H](CO)[C@H](O)[C@@H]1O ?
720

---

- MEASUREMENT_NOTES: Selectivity index, ratio of CC50 for human HFF cells to EC90 for Vaccinia virus
- Type: toxicity, cell-based
- COND: read-out: Selectivity Index
OBSERVATION_TYPE: selectivity ratio
Write the value as a bare number.

Any idea what selectivity ratio was measured for Nc1ncnc2c1ncn2C1=C[C@H](CO)[C@@H](O)[C@H]1O ?
1

---

- MEASUREMENT_NOTES: Selectivity index, ratio of CC50 for human HFF cells to EC90 for human cytomegalovirus
- Type: toxicity, cell-based
- COND: read-out: Selectivity Index
OBSERVATION_TYPE: selectivity ratio

Item Nc1ncnc2c1ncn2C1=C[C@H](CO)[C@@H](O)[C@H]1O has what recorded selectivity ratio?
< 4

---

- MEASUREMENT_NOTES: Selectivity index, ratio of CC50 for human HFF cells to EC50 for human cytomegalovirus
- Assay type: toxicity, cell-based
- COND: read-out: Selectivity Index
OBSERVATION_TYPE: selectivity ratio
# output: bare number, no unit

// returns reported selectivity ratio for input Nc1ncnc2c1ncn2C1=C[C@H](CO)[C@@H](O)[C@H]1O
448

---

- MEASUREMENT_NOTES: Selectivity index, ratio of CC50 for human HG23 cells to EC50 for Norovirus
- Format: toxicity, cell-based
- COND: read-out: Selectivity Index
OBSERVATION_TYPE: selectivity ratio

Entry Nc1ncnc2c1ncn2C1=C[C@H](CO)[C@@H](O)[C@H]1O : reported selectivity ratio = ?
> 128

From: ChEMBL document CHEMBL3351357
